Target: T1, recombinant human CLEC-1 protein with His Tag (#1704-CL R&D Systems) (human, UniProt Q8NC01 74-280)
T1 construct: Bought protein; also called His-CLEC1; His Clec-1; not shown: His tag
T1 sequence: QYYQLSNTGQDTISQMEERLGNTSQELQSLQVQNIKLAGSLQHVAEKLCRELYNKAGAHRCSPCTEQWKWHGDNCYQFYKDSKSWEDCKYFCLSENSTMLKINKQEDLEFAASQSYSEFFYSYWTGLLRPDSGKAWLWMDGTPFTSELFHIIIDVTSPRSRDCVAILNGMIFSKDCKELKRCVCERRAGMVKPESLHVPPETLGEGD
Assay: ELISA on immobilised human His-CLEC1 (column hm His Clec); given as ED50
Procedure: Method: The binding activity of the anti-hCLEC1 antibodies was assessed by ELISA (Enzyme-linked immunosorbent assay). […] A second ELISA assays was performed, like above, with immobilization of CLEC1-Fc (OSE Immunotherapeutics) at 2 μg/ml. A third ELISA assays was performed to see the cross-reactivity with mouse CLEC1. Like above, ELISA was made with immobilization of mouse Fc-CLEC1 (OSE Immunotherapeutics) at 2 μg/ml in carbonate buffer instead of His-Clec. […]
Value type: EC50 (µg/mL)
Form entry: value (µg/mL) — number only.

Recorded EC50 of murine anti-hCLEC1 antibody 10F4-H2 (antibody, V domains shown, Mouse hybridoma antibody) VH: QVQLQQSGTELARPGASVKMSCKASGYIFTDYTIHWVKQRPGQGLEWVGYINPSSGYTNYNQKFKAKATLTADKSSSTAYMQLSSLTSEDSAVYYCTPMFRRSYFDYWGQGTTLTVSS VL: DAVMTQTPLSLPVSLGDQASISCRSSQSLENSNGNTYLNWYLQKPGQSPQLLIYRVSNRFSGVLDRFSGSGSGTDFTLKISRVEAEDLGVYFCLQVTHVPYTFGGGTKLEIK , please.
0.0128
